I'd be grateful if you could share measured growth for these entries.
# Tested on: A498 renal
# protocolNotes: NCI-60 one-dose screen, 48 h (100 = growth as untreated, 0 = no growth, -100 = all killed)
# measurementSetup: 100 µM
About 83,000 compounds went through this panel and 20% of them were active in at least one assay; those are over-represented in the sample as a whole.
One number for each entry, in %.

Before answering, review these 3 worked examples.
# compound, numericResult
data = [
    ("O=C(O)c1c(Cl)c(Cl)c(Cl)c(Cl)c1-c1c2cc(I)c(=O)c(I)c-2oc2c(I)c(O)c(I)cc12", 37.1),
    ("CN(C)C(=O)c1ccc(SC(=S)NCc2ccccc2)cc1", 96.1),
    ("COc1ccc(-c2cscc2N)cc1", 80.6),
]

Lab note: next molecule to report on.
## Task Need growth of `O=C(Nc1c(Cl)cccc1Cl)Oc1cccc2cccnc12` , thanks.
## Result 94.5

====

# Tested on: K-562 leukemia
# protocolNotes: NCI-60 one-dose screen, 48 h
# measurementSetup: 10 µM unless noted
About 83,000 compounds went through this panel and 20% of them were active in at least one assay; those are over-represented in the sample as a whole. Activity calls are given as the source filed them. The calls were made as follows: active = growth percent below 10; inactive = the rest.
One label from this list, please: active, inactive

The following compounds have reported results that may help.
# compound, answerLabel
rows = [
    ("CCOc1ccc(-c2nc3ccc(-c4nc5ccc(N6CCN(C)CC6)cc5[nH]4)cc3[nH]2)cc1", "inactive"),
    ("Oc1ccc(/C=N/NC(=S)Nc2ccccc2)nc1", "inactive"),
    ("Cn1c2c(c3ccccc31)CCN1C[C@@H]3CCCC[C@H]3C[C@@H]21", "inactive"),
    ("Cc1cc2nc(CS)[nH]c2cc1C", "inactive"),
    ("O=C(Nc1ccccc1)c1cc(Cl)ccc1O", "inactive"),
]

## Task Answer briefly: the call reported for `COc1ccc(N=N/N=c2\sc3cc(OC)ccc3n2C)cc1` in this assay.
## Result inactive

## Task Answer briefly: the call reported for `Cc1ccc(C(=Nc2ccccc2)N=P(c2ccccc2)(c2ccccc2)c2ccccc2)cc1` in this assay.
## Result inactive

## Task Answer briefly: the call reported for `Cc1ccc2nc(C[n+]3ccc4ccccc4c3)ccc2c1` in this assay.
## Result inactive

## Task Answer briefly: the call reported for `CC1(C)CC([P+](c2ccccc2)(c2ccccc2)c2ccccc2)=NN1` in this assay.
## Result active

## Task Answer briefly: the call reported for `CC(=O)C(=Cc1ccc(C=C(C(C)=O)C(C)=O)cc1)C(C)=O` in this assay.
## Result active

## Task Answer briefly: the call reported for `Cc1ccc2nc(-[n+]3cc4ccccc4cc3C)ccc2c1` in this assay.
## Result inactive

## Task Answer briefly: the call reported for `CNc1ccc(N)cc1` in this assay.
## Result inactive

====

# System: CAKI-1 renal
# protocolNotes: NCI-60 one-dose screen, 48 h
# measurementSetup: 10 µM unless noted
This is part of a sample that, as a whole, favours compounds with a hit. Of some 83,000 tested, about 20% had one in any assay. The source made the active and inactive calls. The calls were made as follows: active = growth percent below 10; inactive = the rest.
One label from this list, please: True (active), False (inactive)

The following molecules have reported results that may help.
# molecule, answerLabel
measured = [
    ("Cc1ccc(N=C=C(c2ccccc2)c2ccccc2)cc1", "False"),
    ("Cc1ccc(C(=Nc2ccccc2)N=P(c2ccccc2)(c2ccccc2)c2ccccc2)cc1", "True"),
    ("NC(=S)N/N=C/c1ccc(Cl)s1", "False"),
]

## Task Answer briefly: the call reported for `CN(C)C(=O)SC1=C(c2c(Cl)cccc2Cl)C(=O)c2ccccc21` in this assay.
## Result True

## Task Answer briefly: the call reported for `Oc1c(Cl)c2ccccc2c2ccccc12` in this assay.
## Result False

## Task Answer briefly: the call reported for CN1c2ccccc2C(C)(C)C12C=Cc1cc(O)ccc1O2 (stereo unspecified) in this assay.
## Result False
